Biological target: EGFR (epidermal growth factor receptor) (Homo sapiens)
Construct: is purified from human A431 cell membranes; purchased Sigma E3641; host or cells: A431 cell membranes
Sequence (P00533 25-1210): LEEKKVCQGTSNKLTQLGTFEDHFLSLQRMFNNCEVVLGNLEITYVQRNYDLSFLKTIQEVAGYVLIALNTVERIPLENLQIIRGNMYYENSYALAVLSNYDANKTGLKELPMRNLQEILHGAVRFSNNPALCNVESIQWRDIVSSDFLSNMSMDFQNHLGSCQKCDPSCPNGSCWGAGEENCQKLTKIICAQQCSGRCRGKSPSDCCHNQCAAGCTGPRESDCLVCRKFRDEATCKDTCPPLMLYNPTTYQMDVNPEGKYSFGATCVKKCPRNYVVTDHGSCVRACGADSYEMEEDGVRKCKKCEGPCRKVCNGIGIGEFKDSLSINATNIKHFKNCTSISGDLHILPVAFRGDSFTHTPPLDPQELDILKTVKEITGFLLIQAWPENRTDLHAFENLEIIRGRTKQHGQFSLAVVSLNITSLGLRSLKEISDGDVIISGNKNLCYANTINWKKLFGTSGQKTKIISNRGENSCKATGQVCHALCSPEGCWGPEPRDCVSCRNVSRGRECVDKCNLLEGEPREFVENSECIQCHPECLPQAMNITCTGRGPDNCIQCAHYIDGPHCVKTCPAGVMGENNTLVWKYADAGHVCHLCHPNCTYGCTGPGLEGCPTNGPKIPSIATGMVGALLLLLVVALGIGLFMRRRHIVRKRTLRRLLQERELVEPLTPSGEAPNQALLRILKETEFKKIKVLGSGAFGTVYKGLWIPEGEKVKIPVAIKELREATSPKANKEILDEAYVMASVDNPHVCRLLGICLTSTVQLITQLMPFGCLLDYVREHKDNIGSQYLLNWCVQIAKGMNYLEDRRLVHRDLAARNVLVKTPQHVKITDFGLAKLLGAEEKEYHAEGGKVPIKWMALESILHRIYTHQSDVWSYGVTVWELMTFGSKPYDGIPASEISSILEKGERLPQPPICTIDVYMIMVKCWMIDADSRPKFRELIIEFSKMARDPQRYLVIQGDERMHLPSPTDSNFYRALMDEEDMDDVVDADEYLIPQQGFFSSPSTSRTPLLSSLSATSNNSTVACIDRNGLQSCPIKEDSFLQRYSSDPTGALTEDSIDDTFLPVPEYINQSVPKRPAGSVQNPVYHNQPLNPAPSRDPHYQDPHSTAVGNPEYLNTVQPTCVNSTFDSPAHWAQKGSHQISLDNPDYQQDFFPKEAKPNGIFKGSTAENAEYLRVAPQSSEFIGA
Assay: EGF-R kinase selectivity assay
Type: biochemical
Settings: Table 4 kinase selectivity
pIC50: −log10 of the molar value.
assayEndpoint: pIC50

molecule	assayEndpoint	val
CN(C)CCCNc1cncc(-c2cncc(Nc3cccc(Cl)c3)n2)c1 [Cmd 35]	pIC50	4.68
O=C(NCCCO)c1cncc(-c2cncc(Nc3cccc(Cl)c3)n2)c1 [Cmd 39]	pIC50	5.22

###

Target: Insulin Receptor Kinase (Homo sapiens, UniProt P06213)
Construct: consists of residues 941-1313 of the cytoplasmic domain of the beta-subunit of the human insulin receptor
Sequence (P06213 980-1352): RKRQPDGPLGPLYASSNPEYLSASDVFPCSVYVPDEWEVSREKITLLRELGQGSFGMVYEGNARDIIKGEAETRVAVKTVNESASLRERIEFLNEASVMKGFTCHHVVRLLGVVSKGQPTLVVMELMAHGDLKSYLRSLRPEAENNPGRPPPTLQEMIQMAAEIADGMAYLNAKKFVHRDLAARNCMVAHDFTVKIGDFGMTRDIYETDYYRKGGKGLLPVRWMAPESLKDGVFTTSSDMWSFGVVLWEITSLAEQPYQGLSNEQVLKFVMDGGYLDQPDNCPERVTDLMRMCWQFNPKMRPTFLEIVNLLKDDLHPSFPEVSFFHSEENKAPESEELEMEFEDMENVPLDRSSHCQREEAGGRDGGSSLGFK
Experiment: Insulin Kinase selectivity assay
Settings: Table 4 kinase selectivity; read-out: IC50, Assay 13 Insulin Kinase

compound	IC50
CN(C)CCCNc1cncc(-c2cncc(Nc3cccc(Cl)c3)n2)c1 [Cmd 35]	> 100 µM
OCCCCNc1cncc(-c2cncc(Nc3cccc(Cl)c3)n2)c1 [Cmd 32]	> 100 µM
O=C(NCCCO)c1cncc(-c2cncc(Nc3cccc(Cl)c3)n2)c1 [Cmd 39]	1.8 µM
OCCCNc1cncc(-c2cncc(Nc3cccc(Cl)c3)n2)c1 [Cmd 4]	1.69 µM
Clc1cccc(Nc2cncc(-c3cncc(NCCCn4cncn4)c3)n2)c1 [Cmd 76]	> 100 µM
Clc1cccc(Nc2cncc(-c3cncc(NCCCc4cccnc4)c3)n2)c1 [Cmd 72]	> 100 µM
Clc1cccc(Nc2cncc(-c3cncc(NCCCn4cccn4)c3)n2)c1 [Cmd 75]	> 100 µM
Clc1cccc(Nc2cncc(-c3cncc(NCCCN4CCCCC4)c3)n2)c1 [Cmd 73]	> 100 µM
CN(C)CCNc1cncc(-c2cncc(Nc3cccc(Cl)c3)n2)c1 [Cmd 33]	> 100 µM
Clc1cccc(Nc2cncc(-c3cncc(NCCCc4ccncc4)c3)n2)c1 [Cmd 71]	> 100 µM
